Test system: P aeruginosa
Experiment: MIC by broth microdilution, P aeruginosa isolates
Type: cell-based, Pseudomonas aeruginosa
Details: strain AG31; Table 1 (Example 2)
TEST READOUT: MIC50 P aeruginosa AG31 (µg/mL)
Answers are plain numbers, in µg/mL.

Entry NC[C@@H]1O[C@H](O[C@H]2[C@@H](O)[C@H](O[C@@H]3[C@@H](O)[C@H](N)C[C@H](N)[C@H]3O[C@H]3O[C@H](CN)[C@@H](O)[C@H](O)[C@H]3N)O[C@@H]2CO)[C@H](N)[C@@H](O)[C@@H]1O [neomycin, Neomycin B, reference compound] , MIC50 P aeruginosa AG31 reported as 32
